protocol text: Half life in ICR mouse at 3 mg/kg, iv measured upto 48 hrs
Type: ADME, organism-based
test parameters: in vivo
observation type: half-life (h)

entry_smiles=Cc1c(F)cccc1NC(=O)Nc1ccc2c(c1O)S(=O)(=O)CC=C2 observation_type=half-life unit_of_measurement=h value_measured=3.39
entry_smiles=NS(=O)(=O)c1c(Cl)ccc(NC(=O)Nc2cccc(Cl)c2Cl)c1O observation_type=half-life unit_of_measurement=h value_measured=3.6
entry_smiles=Cc1c(F)cccc1NC(=O)Nc1ccc2c(c1O)S(=O)(=O)CCC2 observation_type=half-life unit_of_measurement=h value_measured=4.11

###

study system: C-X-C chemokine receptor type 2 (Homo sapiens)
Sequence (P25025 whole entry): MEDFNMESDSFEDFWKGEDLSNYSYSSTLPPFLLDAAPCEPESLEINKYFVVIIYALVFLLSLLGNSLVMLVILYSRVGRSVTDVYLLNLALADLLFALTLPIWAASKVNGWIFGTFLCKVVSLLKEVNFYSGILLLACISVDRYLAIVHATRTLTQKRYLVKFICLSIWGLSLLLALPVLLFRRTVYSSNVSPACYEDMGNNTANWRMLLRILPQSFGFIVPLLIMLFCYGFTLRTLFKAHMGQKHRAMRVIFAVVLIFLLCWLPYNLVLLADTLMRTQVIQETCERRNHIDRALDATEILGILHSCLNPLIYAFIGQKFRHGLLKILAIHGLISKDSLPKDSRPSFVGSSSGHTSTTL
protocol text: Antagonist activity at human CXCR2 expressed in HEK293 cells assessed as inhibition of CXCL8-induced beta-arrestin recruitment preincubated for 30 mins followed by addition of agonist incubated for 90 mins by beta arrestin assay
pIC50: −log10 of the molar value.
observation type: pIC50

Worked cases, answers included:
entry_smiles=O=c1c(Nc2ccccc2Cl)c(Nc2ccc3c(c2O)S(=O)(=O)CCC3)c1=O study_system="C-X-C chemokine receptor type 2 (Homo sapiens)" observation_type=pIC50 value_measured=5.98
entry_smiles=O=C(Nc1ccc2c(c1O)S(=O)(=O)CCC2)Nc1cccc(Cl)c1Cl study_system="C-X-C chemokine receptor type 2 (Homo sapiens)" observation_type=pIC50 value_measured=6.68

1. O=C(Nc1ccc(Br)cc1)Nc1ccc2c(c1O)S(=O)(=O)CC=C2
2. O=C(Nc1ccc2c(c1O)S(=O)(=O)CC=C2)Nc1cccc(Cl)c1Cl
I'm curious, which of these has a smaller pIC50 number: 1 or 2 ? Kindly give the label for the entry you pick.
1
(1: 5.83, 2: 6.89)

###

protocol text: Cmax in ICR mouse at 30 mg/kg, po measured upto 48 hrs
Format: ADME, organism-based
Design: route oral, dose 30 mg/kg, time <=48
test parameters: in vivo
observation type: Cmax (ng/mL)

a. Cc1c(F)cccc1NC(=O)Nc1ccc2c(c1O)S(=O)(=O)CCC2
b. NS(=O)(=O)c1c(Cl)ccc(NC(=O)Nc2cccc(Cl)c2Cl)c1O
c. Cc1c(F)cccc1NC(=O)Nc1ccc2c(c1O)S(=O)(=O)CC=C2
Rank items: key Cmax, increasing. Write out the labels following the order that was asked for.
a, c, b
(a: 19 ng/mL, c: 419 ng/mL, b: 3810 ng/mL)

###

protocol text: AUC (0 to t) in ICR mouse at 3 mg/kg, iv measured upto 48 hrs
Assay type: ADME, organism-based
Parameters: route intravenous, dose 3 mg/kg, time <=48
test parameters: in vivo
observation type: AUC(0-t) at 48 h (ng·h/mL)

entry_smiles=NS(=O)(=O)c1c(Cl)ccc(NC(=O)Nc2cccc(Cl)c2Cl)c1O value_measured=3160

I. Cc1c(F)cccc1NC(=O)Nc1ccc2c(c1O)S(=O)(=O)CC=C2
II. Cc1c(F)cccc1NC(=O)Nc1ccc2c(c1O)S(=O)(=O)CCC2
Between item I and item II , which reported AUC(0-t) at 48 h is smaller? Returns: label corresponding to the selected item.
II
(II: 357 ng·h/mL, I: 1510 ng·h/mL)

###

Tested on: PANC-1
protocol text: Cytotoxicity against human PanC-1 cells assessed as reduction in cell viability measured after 72 hrs by CCK8 assay
Assay type: cell-based
test parameters: PANC-1, 72 h
The entries below come with measured IC50 values attached.

entry_smiles=Cc1c(F)cccc1NC(=O)Nc1ccc2c(c1O)S(=O)(=O)CC=C2 observation_type=IC50 value_measured="> 10 µM"

Continue with the molecule presented below.
Can you look up the measured IC50 of Cc1c(F)cccc1NC(=O)Nc1ccc2c(c1O)S(=O)(=O)CCC2 for me?
> 10 µM
